- Test system: PC-3 prostate
- experimentalDetails: NCI tumour cell line growth inhibition, 48 h
metricName: TGI

1) Nc1[nH]nc2nc3ccccc3nc12: > 100 µM
2) Nc1nc(Cl)cc(NC2(CO)CCC2)n1: > 100 µM
3) Cn1ncc2c(Cl)ncnc21: > 100 µM
4) O=S(=O)(NNc1ccccc1)c1ccccc1: 22.9 µM
5) COCc1c(-c2cc3cc(C)cc(OC)c3s2)c2c(N)ncnn2c1CN1CCNC(=O)C1: > 100 µM
6) O=c1ccn(C2OC(CO)C(O)C2F)c(=O)n1Cc1ccccc1 (stereo not given): > 100 µM
7) COc1ccc(Cc2coc3ccccc3c2=O)cc1OC: > 100 µM
8) NC1=Nc2cc(Cl)ccc2Sc2nc3ccccc3n21: > 100 µM
9) NC(CCOCCP(=O)(O)O)C(=O)O (stereo not given): > 100 µM
10) O=C(Nc1cccc(O)c1)c1ccc(NC2=C(Cl)C(=O)N(Cc3ccc(Cl)cc3Cl)C2=O)cc1: 4.28 µM
11) Cc1ccc(/C=N/Nc2nc(Nc3ccccc3)nc(-n3nc(C)cc3C)n2)cc1: 23.6 µM
12) C=C1CC(Cn2ccc(=O)[nH]c2=O)(c2ccc(Cl)cc2)OC1=O (stereo not given): 19.2 µM
13) O=C(/C=C/c1cccc(Oc2ccccc2)c1)NCc1ccc(C(=O)NCCc2ccccc2)cc1: > 100 µM
14) COc1ccc(CN2c3ccccc3Sc3ccccc32)c(C(F)(F)F)c1: > 100 µM
15) COc1ccc(C2C(C#N)=C(S)N(C3OC(COC(C)=O)C(OC(C)=O)C(OC(C)=O)C3OC(C)=O)C(c3ccccc3)=C2C(C)=O)cc1 (stereo not given): > 100 µM
16) Cn1cc(-c2ccc3cc(-c4ccc(CC(=O)Nc5cc(C(C)(C)C)on5)cc4)cnc3c2)cn1: 20.8 µM
17) CCOC(=O)c1cc2c(cc1Cl)SC(=Nc1ccccc1)N(S(=O)(=O)c1ccc(Cl)cc1)S2(=O)=O: 28.6 µM
18) COC(=O)N[C@H](C(=O)O)C(C)O[Si](C)(C)C(C)(C)C (stereo not given in full): > 100 µM
19) C/C=C1\CN(C(=O)OC(C)(C)C)C1C(=O)OC(C)(C)C (stereo not given): > 100 µM
20) CC(C)(C)OC(=O)CN1CCNCCN(CC(=O)OC(C)(C)C)CCNCC1: > 100 µM

These entries and their values trace back to PubChem BioAssay (NCI).
